Property: gcPBM binding intensity (ln); scope: individual sequences
System: PfAP2-G AP2 domain (GST-tagged)
Experiment: gcPBM binding intensity (ln(normalized median fluorescence intensity)); higher = stronger DNA binding
Over roughly 25,000 sequences, “ln(normalized median fluorescence intensity)” has its median near 10; the highest 2% begin near 12. This is one part of a sample in which the highest values are shown more often than they occur.
When you answer, write just the number.

>>> measured_result("TTTGAAATAAAAAGGTGTACACTCGATTAATAAATA [XGTACX_site6943]")
11.8
>>> measured_result("TAAAATTTAAAAAGGTGTACACTATAAATTAAAATA [XGTACX_site2081]")
11.7
>>> measured_result("GGTGTTAAAAAATACACACACAAAAAAAAAAAAAAA [CACACA_site138]")
9.95
>>> measured_result("GAAAAAAGAAAAAAAAGTACACACATGTATATTAAT [XGTACX_site5265]")
11.5
>>> measured_result("TATATTTATTTTCTGTGTACACATATGTTGTGTATT [XGTACX_site7640]")
11.6

Ask: Item under review: ACACAAAAATAAAAATGTACAAATTAAAAAAAATGA [XGTACX_site2083] . Reported gcPBM binding intensity (ln)?
Result: 10.8

Ask: Try the sequence AATGTGCACACGCGTACACACAAAAAAAGAAAAAAA [CACACA_site7031]
Result: 11.7

====

Property: gcPBM binding intensity (ln); scope: individual sequences
Tested on: PfAP2-G AP2 domain (GST-tagged)
Experiment: gcPBM binding intensity (ln(normalized median fluorescence intensity)); higher = stronger DNA binding
Over roughly 25,000 sequences, “ln(normalized median fluorescence intensity)” has its median near 10; the highest 2% begin near 12. What follows is part of a selection rich in the highest values, with near analogues and random picks from the rest.
When you answer, write just the number.

Here's what some known entries look like.
>>> measured_result("ATTAAGTTCAAATGTAGTACGTGTAAAAAAAAAAAA [XGTACX_site1578]")
11.4
>>> measured_result("ATTTTTTTTGCTAAGTGTACACAAATGTTTATTAAT [XGTACX_site7440]")
11.7
>>> measured_result("CCAATGAGGATATATACACACATACATTAAAAAAAT [CACACA_site5090]")
10
>>> measured_result("AAAAAAAAAAAAAGATGTACATATATTTTTATTATA [XGTACX_site654]")
11.4
>>> measured_result("TTATTCATTTCGAAAAGTACAAATTCTGTTTATTAT [XGTACX_site6892]")
11.1
>>> measured_result("ATATATATATATATATGTACATATTTTATTTAATTT [XGTACX_site1807]")
11.2
>>> measured_result("GTATGTATATTTATCTGTACATATTTATGTATTCTT [XGTACX_site2112]")
11.2
>>> measured_result("ATTTTTTTTTTTATGTGTACATATATTTTTTTAATT [XGTACX_site7921]")
11.6
>>> measured_result("GTATATATGTATATGTGTACACATATTCTTAACTCA [XGTACX_site309]")
11.6
>>> measured_result("GTATATATGTATATGTGTACATATATTTTATAATAT [XGTACX_site5703]")
11.3

Ask: Entry TCAAATGTGTAATCTTGTACACATTAAAAGAAAAAA [XGTACX_site8822] , system PfAP2-G AP2 domain (GST-tagged): what gcPBM binding intensity (ln) was measured?
Result: 11.2
